# test.system: CYP3A4 (Homo sapiens, UniProt P08684)
# Sequence (P08684 whole entry): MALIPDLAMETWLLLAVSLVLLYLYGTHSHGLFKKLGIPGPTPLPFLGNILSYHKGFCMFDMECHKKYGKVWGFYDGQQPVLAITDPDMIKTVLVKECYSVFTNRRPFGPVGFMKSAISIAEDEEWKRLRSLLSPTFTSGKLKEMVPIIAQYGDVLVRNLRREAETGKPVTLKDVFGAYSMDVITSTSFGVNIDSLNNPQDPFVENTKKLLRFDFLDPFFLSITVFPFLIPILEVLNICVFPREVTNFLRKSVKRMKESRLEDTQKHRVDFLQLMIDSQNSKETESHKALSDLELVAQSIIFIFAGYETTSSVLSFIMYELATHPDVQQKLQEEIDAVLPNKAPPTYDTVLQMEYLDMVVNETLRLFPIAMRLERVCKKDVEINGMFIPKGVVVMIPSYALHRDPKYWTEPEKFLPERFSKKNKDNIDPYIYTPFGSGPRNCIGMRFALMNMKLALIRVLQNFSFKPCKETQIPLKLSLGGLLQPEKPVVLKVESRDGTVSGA
# experiment.description: biochemical
# condition.description: CYP3A4 AC50 (half-maximal activity concentration)
// AC50 lookup, one value per entry
# output: bare number, implied unit µM

Here is how some compounds turned out for AC50.
[
  {
    "compound": "CC1(C)[C@H](C(=O)O[C@H](C#N)c2cccc(Oc3ccccc3)c2)[C@@H]1C=C(Br)Br",
    "AC50 (µM)": 9.13
  },
  {
    "compound": "CCCCCC1C(=O)CCC1CC(=O)OC (stereo not drawn) [Methyl dihydrojasmonate]",
    "AC50 (µM)": 8.73
  }
]

Would you kindly look at the next entry?
// AC50 lookup, compound = CCOC(=O)C(O)(c1ccc(Cl)cc1)c1ccc(Cl)cc1 [Chlorobenzilate] , result: 9.23

* * *

Assay read-out CYP2D6 AC50 (half-maximal activity concentration); system under study: human CYP2D6 (Homo sapiens, UniProt P10635).
Sequence (P10635 whole entry): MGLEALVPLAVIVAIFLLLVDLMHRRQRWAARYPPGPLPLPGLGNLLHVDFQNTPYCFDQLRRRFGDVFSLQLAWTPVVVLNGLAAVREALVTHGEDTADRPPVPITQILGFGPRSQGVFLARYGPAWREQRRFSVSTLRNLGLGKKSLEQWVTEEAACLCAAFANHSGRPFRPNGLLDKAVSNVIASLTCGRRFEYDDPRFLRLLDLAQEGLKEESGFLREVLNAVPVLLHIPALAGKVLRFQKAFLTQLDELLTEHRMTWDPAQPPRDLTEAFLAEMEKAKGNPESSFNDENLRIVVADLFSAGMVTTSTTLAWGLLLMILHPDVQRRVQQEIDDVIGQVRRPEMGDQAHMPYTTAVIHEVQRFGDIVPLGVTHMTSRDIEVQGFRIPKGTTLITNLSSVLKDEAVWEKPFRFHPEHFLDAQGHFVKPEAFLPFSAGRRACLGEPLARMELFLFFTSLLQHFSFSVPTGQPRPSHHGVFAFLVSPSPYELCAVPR

[
  {
    "molecule": "O=P(Oc1ccccc1)(Oc1ccccc1)Oc1ccccc1 [Triphenyl phosphate]",
    "test.system": "human CYP2D6 (Homo sapiens, UniProt P10635)",
    "meas.value": "Inactive"
  },
  {
    "molecule": "CCOC(=O)NC(C)(C)Cc1ccc(Cl)cc1",
    "test.system": "human CYP2D6 (Homo sapiens, UniProt P10635)",
    "meas.value": "Inconclusive inhibitor"
  },
  {
    "molecule": "CCCCCCCCCCCCCOP(=O)(O)O [Monotridecyl phosphate]",
    "test.system": "human CYP2D6 (Homo sapiens, UniProt P10635)",
    "meas.value": "Inactive"
  },
  {
    "molecule": "CCOC(=O)c1ccc(O)c(O)c1 [Ethyl protocatechuate]",
    "test.system": "human CYP2D6 (Homo sapiens, UniProt P10635)",
    "meas.value": "Inactive"
  },
  {
    "molecule": "O=C(Oc1ccccc1)c1ccccc1C(=O)Oc1ccccc1 [Diphenyl phthalate]",
    "test.system": "human CYP2D6 (Homo sapiens, UniProt P10635)",
    "meas.value": "Inactive"
  },
  {
    "molecule": "Cc1ccc(Cl)c(Nc2ccccc2C(=O)O)c1Cl [Meclofenamate sodium]",
    "test.system": "human CYP2D6 (Homo sapiens, UniProt P10635)",
    "meas.value": "Inconclusive inhibitor"
  },
  {
    "molecule": "CC(C)(C)c1ccc(C(=O)CCCCl)cc1",
    "test.system": "human CYP2D6 (Homo sapiens, UniProt P10635)",
    "meas.value": "Inactive"
  },
  {
    "molecule": "CC(C)c1ccccc1O",
    "test.system": "human CYP2D6 (Homo sapiens, UniProt P10635)",
    "meas.value": "Inactive"
  },
  {
    "molecule": "CCCCCCCCS(=O)(=O)[O-].[Na+] [Sodium 1-octanesulfonate]",
    "test.system": "human CYP2D6 (Homo sapiens, UniProt P10635)",
    "meas.value": "Inactive"
  }
]

Consider the record given below.
// molecule CC(C)(C)C1=CC(=O)C(C(C)(C)C)=CC1=O , assay human CYP2D6 (Homo sapiens, UniProt P10635), CYP2D6 AC50 (half-maximal activity concentration) value: Inconclusive inhibitor

* * *

Below is a list of entries, each paired with its recorded pIC50 value.
# test.system: Photinus pyralis (firefly) luciferase (Photinus pyralis)
# Sequence (P08659 whole entry): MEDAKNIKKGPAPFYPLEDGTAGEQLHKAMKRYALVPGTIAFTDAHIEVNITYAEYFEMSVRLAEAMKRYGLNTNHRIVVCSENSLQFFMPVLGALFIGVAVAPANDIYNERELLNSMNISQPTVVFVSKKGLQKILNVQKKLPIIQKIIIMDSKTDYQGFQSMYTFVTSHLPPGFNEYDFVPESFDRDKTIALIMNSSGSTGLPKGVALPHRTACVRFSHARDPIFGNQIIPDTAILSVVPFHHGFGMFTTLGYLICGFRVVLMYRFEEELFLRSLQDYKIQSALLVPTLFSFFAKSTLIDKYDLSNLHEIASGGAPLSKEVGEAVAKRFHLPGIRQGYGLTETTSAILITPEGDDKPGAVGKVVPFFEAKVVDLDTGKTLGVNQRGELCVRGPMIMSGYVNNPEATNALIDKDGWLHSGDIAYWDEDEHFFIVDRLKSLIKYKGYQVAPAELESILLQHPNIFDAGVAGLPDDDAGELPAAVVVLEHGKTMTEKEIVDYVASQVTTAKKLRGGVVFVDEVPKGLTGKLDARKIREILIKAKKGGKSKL
# experiment.description: biochemical
# Assay type: biochemical
Counter-ions that a name gives are not always drawn.
// pIC50 here means minus log10 of the molar concentration (mol/L)

Example molecules with recorded pIC50:
[
  {
    "molecule": "Nc1ccc2c(c1)C(=O)c1ccccc1C2=O [2-Aminoanthraquinone]",
    "pIC50": 5.57
  },
  {
    "molecule": "CCOC(=O)CC(SP(=S)(OC)OC)C(=O)OCC (stereo not drawn) [Malathion]",
    "pIC50": 4.43
  }
]

Record Clc1ccccc1CN1CCc2sccc2C1 [Ticlopidine hydrochloride] ; system Photinus pyralis (firefly) luciferase (Photinus pyralis); pIC50 = 5.06
